Assay: gradient 5% acetonitrile 3 min, to 50% in 2 min, to 85% in 15 min, held 3 min, 100 µL/min
Conditions: column: Zorbax Extend-C18 2.1 x 50 mm; eluents: water / acetonitrile, 0.1% formic acid
EXPERIMENTAL READOUT: RP-LC retention time (s)

Below, each entry is followed by its recorded RP-LC retention time result.
COMPOUND: CN1CCCN(c2ccc(NC(=O)c3ccc(Br)cc3)c(C(=O)O)c2)CC1
RECORDED VALUE: 670
//
COMPOUND: COC(=O)c1cccc(NC(=O)CSc2cc(N3CCN(c4ccc(OC)cc4)CC3)ncn2)c1
RECORDED VALUE: 905

P: O=C1CCCN1CN(C(=O)c1ccccc1F)c1nc2ccccc2s1
Q: Cc1ccc(-c2ccc(-n3nc(C)c(S(=O)(=O)N4CCC(C)CC4)c3C)nn2)cc1
R: Cn1c(=O)sc2cc(S(=O)(=O)N3CCC(C(=O)NCc4cccnc4)CC3)ccc21
Query: Order the records, beginning with the lowest RP-LC retention time and ending with the highest. Please reply with the labels ordered as requested. Many thanks.
Result: R, P, Q

* * *

Assay: gradient 5% acetonitrile 3 min, to 50% in 2 min, to 85% in 15 min, held 3 min, 100 µL/min
Settings: column: Zorbax Extend-C18 2.1 x 50 mm; eluents: water / acetonitrile, 0.1% formic acid
EXPERIMENTAL READOUT: RP-LC retention time (s)

COMPOUND: CC(C)c1nc2c(N)cccn2n1
RP-LC retention time [s]: 613

COMPOUND: CCn1c(C(=O)NCCCN2CCCC(C)C2)c(N2CCCC2=O)c2cc(F)ccc21 (stereo not given)
RP-LC retention time [s]: 660

COMPOUND: O=C(Cn1c(=O)cc(-c2nc(C3CC3)no2)c2ccccc21)NCc1cccc(Cl)c1
RP-LC retention time [s]: 979

COMPOUND: Cc1c(C(=O)N2CCN(C)CC2)sc2ncnc(N3CCN(c4ccccn4)CC3)c12
RP-LC retention time [s]: 523

COMPOUND: Cc1nc(Cn2cccc2C(=O)Nc2ccc(Br)c(C)c2)no1
RP-LC retention time [s]: 995

1: COc1cc(OC)c(NC(=O)NC2CCN(c3ccc(F)c(C)c3)C2=O)cc1Cl (stereo not given)
2: CN(C)C(=O)c1cn(C2CN(C(=O)c3cccc(C#N)c3)C2)nn1
Query: Between item 1 and item 2 , which reported RP-LC retention time is smaller? Indicate which entry you chose by stating its label.
Result: 2

* * *

Experiment: gradient 5% acetonitrile 3 min, to 50% in 2 min, to 85% in 15 min, held 3 min, 100 µL/min
Settings: column: Zorbax Extend-C18 2.1 x 50 mm; eluents: water / acetonitrile, 0.1% formic acid
EXPERIMENTAL READOUT: RP-LC retention time (s)

Below, each entry is followed by its recorded RP-LC retention time result.
COMPOUND: O=C(Nc1cccc(C(=O)N2CCN(c3cccc(Cl)c3)CC2)c1)C1=CSCCO1
EXPERIMENTAL READOUT: RP-LC retention time
RECORDED VALUE: 953

COMPOUND: O=C(Cc1cccc(C(F)(F)F)c1)Nc1cccn2ncnc12
EXPERIMENTAL READOUT: RP-LC retention time
RECORDED VALUE: 837

COMPOUND: CCOc1ccc(C(=O)N2C[C@@H]3C[C@H](NC(=O)c4cccs4)[C@H]2C3)cc1
EXPERIMENTAL READOUT: RP-LC retention time
RECORDED VALUE: 783

A: CNC(=O)c1nsc(C(=O)OC)c1N
B: C=Cc1ccc(COC(=O)C2=CN(CC)S(=O)(=O)N=C2C)cc1
Query: Between item A and item B , which reported RP-LC retention time is smaller? Indicate which entry you chose by stating its label.
Result: A
(A: 677 s, B: 1030 s)

A: CC(C)CC(=O)N1CCc2c(c(C(=O)NCc3ccc4c(c3)OCO4)nn2C)C1
B: Cc1c(Cl)cccc1Nc1c(-c2ccc(Br)cc2)nc2cnccn12
Query: Could you kindly indicate whether A or B has the higher RP-LC retention time value? Indicate which entry you chose by stating its label.
Result: B
(B: 1160 s, A: 745 s)

I: O=C(c1ccc2ccnc(N3CCN(c4ccccc4)CC3)c2c1)N1CCN(c2ccccn2)CC1
II: CC1=C(c2ccc(C)c(C)c2)S(=O)(=O)N=C1N1CCCN(C(=O)CC2CCCC2)CC1
Query: Could you kindly indicate whether I or II has the higher RP-LC retention time value? Indicate which entry you chose by stating its label.
Result: II
(II: 967 s, I: 616 s)

Measured values drawn from the METLIN SMRT retention time set (Domingo-Almenara et al. 2019) for this set.
